These measurements were taken from paper PMC12203913.

ASSAY_TARGET: XPC-RAD23B (Homo sapiens, UniProt Q01831;P54727 1-940;1-409)
Sequence (Q01831 whole entry, chain 1 of 2): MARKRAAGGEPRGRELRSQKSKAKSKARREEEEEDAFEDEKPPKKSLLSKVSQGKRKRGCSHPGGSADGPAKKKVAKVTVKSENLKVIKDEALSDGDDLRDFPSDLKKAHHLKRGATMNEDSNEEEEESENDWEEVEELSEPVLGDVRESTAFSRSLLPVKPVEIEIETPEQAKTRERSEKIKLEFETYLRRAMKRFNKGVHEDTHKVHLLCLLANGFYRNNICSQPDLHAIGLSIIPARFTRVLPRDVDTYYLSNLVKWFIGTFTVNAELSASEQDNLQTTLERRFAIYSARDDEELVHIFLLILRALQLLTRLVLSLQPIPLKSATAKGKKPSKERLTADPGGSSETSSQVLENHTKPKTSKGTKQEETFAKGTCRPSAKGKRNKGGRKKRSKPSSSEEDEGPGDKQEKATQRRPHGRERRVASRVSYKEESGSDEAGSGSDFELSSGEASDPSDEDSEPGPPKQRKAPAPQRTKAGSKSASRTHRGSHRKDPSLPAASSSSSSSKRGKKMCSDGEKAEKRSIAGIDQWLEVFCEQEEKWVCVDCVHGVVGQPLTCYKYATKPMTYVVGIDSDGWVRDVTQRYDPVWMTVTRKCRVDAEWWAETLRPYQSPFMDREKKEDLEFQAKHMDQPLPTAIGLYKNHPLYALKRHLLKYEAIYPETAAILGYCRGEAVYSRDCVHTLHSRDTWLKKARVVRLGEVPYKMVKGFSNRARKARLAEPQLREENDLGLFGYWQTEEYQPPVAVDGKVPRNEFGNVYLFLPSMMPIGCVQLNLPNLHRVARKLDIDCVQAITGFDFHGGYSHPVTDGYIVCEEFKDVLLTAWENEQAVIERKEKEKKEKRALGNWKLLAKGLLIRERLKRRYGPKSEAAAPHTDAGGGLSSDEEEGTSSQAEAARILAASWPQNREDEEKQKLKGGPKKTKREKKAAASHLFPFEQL
Sequence (P54727 whole entry, chain 2 of 2): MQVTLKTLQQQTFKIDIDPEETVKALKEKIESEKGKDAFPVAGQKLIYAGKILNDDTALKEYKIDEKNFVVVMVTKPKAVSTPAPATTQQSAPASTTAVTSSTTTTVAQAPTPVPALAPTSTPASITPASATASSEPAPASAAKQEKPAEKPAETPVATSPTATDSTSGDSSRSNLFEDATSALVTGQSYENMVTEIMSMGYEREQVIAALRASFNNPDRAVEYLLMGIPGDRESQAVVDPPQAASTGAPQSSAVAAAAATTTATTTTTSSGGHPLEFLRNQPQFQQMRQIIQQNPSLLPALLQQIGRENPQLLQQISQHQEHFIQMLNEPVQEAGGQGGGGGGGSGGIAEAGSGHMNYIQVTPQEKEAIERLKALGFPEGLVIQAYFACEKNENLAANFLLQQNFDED
MEASUREMENT_DESCRIPTION: EMSA; 4 nM DNA, no competitor; EMSA: 50 mM Tris-HCl pH 7.5, 100 mM NaCl, 0.1 mg/ml BSA, 1 mM DTT, 23°C, 45 min; DNA curtains: 10 mM Tris-HCl pH 8.0, 1 mM EDTA, 0.16% BSA, 1 mM DTT, 0-100 mM NaCl, 23°C
CONDITION: protein: recombinant; tags: 3xFLAG at N-terminus of XPC; copies: 1;1; label: 5'-FAM on strand 2; blunt; T21 of strand 1 faces T of strand 2 (T-T mismatch at the CPD)
pKd: −log10 of the molar value.
ASSAY_METRIC: pKd

Fill in: pKd of CPD-containing 39 bp DNA (λ-I3_CPD / λ-I3_comp_FAM) (dsDNA, cyclobutane pyrimidine dimer T21^T22 in strand 1; 5'-phosphate on strand 1) DNA 1: TGCATGCGGCCGCTCTTCCCTTGGTGCGATCGCTCTTCG DNA 2: CGAAGAGCGATCGCACCATGGGAAGAGCGGCCGCATGCA is ___
~8.15
